Measured on: wild-type RXR (GBD:RXR) (Homo sapiens, UniProt P19793)
Sequence (P19793 227-458 limits assumed): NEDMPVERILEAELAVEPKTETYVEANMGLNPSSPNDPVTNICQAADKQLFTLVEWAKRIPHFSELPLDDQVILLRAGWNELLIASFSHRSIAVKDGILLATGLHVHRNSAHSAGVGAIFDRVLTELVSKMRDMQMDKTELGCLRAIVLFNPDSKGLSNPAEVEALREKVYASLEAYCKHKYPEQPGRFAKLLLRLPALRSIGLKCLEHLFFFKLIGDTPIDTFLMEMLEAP
Sequence (Q9Y6Q9 1-1413 partner limits assumed): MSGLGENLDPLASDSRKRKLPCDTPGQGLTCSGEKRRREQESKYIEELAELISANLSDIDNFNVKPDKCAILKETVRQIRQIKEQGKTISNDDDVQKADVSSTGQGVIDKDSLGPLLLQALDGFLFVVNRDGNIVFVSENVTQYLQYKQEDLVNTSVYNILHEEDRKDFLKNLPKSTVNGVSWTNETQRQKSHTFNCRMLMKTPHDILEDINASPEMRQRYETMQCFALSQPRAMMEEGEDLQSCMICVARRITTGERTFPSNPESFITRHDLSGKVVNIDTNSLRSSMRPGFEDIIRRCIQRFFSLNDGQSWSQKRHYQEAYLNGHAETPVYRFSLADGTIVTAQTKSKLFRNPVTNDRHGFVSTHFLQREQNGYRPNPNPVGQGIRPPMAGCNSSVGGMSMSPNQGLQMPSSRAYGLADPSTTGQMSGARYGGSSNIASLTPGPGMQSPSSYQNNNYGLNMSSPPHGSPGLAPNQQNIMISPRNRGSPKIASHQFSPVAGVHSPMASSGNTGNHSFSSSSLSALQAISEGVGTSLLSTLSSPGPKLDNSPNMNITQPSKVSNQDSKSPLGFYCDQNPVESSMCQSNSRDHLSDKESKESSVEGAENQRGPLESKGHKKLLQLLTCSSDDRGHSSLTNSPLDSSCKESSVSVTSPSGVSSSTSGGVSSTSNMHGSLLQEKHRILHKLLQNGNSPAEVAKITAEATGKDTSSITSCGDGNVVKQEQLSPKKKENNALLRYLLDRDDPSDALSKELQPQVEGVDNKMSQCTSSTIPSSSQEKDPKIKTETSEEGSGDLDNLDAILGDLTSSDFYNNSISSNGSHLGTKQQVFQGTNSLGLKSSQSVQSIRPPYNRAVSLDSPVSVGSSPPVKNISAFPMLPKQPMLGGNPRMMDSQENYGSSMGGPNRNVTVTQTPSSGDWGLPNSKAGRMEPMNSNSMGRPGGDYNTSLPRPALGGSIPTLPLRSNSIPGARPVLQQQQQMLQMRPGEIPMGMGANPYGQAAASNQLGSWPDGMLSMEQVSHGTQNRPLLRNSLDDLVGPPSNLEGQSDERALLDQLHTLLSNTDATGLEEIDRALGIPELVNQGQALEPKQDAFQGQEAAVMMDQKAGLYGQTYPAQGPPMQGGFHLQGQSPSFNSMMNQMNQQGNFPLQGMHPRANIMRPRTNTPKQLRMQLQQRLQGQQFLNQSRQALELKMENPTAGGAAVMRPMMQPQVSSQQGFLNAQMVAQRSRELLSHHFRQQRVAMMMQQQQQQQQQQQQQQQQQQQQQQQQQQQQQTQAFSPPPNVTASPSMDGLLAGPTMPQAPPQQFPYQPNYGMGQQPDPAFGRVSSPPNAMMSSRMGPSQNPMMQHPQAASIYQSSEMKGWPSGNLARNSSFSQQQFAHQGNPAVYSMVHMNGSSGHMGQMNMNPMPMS
Assay comment: cell-based
pEC50: −log10 of the molar value.
Endpoint name: pEC50

Assay wild-type RXR (GBD:RXR) (Homo sapiens, UniProt P19793), sample CCCc1cc2c(cc1C(=O)c1ccc(C(=O)O)cc1)C(C)(C)CCC2(C)C , pEC50 read: < 5.00

====

Measured on: RXR variant I268A; I310S; F313V; L436F (Homo sapiens, UniProt P19793, F313V/I268A/I310S/L436F)
Sequence (P19793 225-462 I268A/I310S/F313V/L436F): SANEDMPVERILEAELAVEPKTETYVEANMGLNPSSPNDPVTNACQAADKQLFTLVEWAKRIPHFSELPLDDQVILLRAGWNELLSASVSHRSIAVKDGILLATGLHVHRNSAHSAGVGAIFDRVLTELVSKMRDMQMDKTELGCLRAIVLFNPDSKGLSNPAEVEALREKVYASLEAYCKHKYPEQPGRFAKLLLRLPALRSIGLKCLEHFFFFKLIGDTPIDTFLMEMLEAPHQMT
Assay comment: cell-based
Experimental parameters: HEK 293; I268A; I310S; F313V; L436F (second line, r11)
Endpoint name: EC50 (nM)
Give the quantity in nM, number only.

Looking up CCCc1cc2c(cc1C(=O)c1ccc(C(=O)O)cc1)C(C)(C)CCC2(C)C , I see its EC50 listed as 690

====

Measured on: wtRXR (Homo sapiens)
Sequence (P19793 whole entry): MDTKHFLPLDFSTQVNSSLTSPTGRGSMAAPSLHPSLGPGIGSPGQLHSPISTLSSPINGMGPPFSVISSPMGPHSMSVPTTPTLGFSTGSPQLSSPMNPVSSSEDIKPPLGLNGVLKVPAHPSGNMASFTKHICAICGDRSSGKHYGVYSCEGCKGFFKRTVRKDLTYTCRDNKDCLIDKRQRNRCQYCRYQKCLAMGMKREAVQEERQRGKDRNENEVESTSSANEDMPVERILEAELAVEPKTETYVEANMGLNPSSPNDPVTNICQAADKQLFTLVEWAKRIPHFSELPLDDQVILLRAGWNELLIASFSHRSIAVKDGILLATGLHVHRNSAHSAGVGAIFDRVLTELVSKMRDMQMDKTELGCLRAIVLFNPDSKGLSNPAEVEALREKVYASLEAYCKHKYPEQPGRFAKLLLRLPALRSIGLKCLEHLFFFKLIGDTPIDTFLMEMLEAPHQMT
Assay comment: cell-based
From the text: RLU=relative light units. Mammalian Luciferase Assay: Performed with HEK 293 cells as previously described, and known in the art. Five variants were chosen for testing in mammalian cell culture for comparison of the activation profiles (I268A;I310A;F313A;L436F,I268V;A272V;I310L;F313M, I268A;I310S;F313A;L436F, I268V;A272V;I310M;F313S;L436M, and I286A;I310M;F313A;L436T). The genes for these variants were removed from yeast expression plasmids and ligated into mammalian expression plasmids.
Endpoint name: EC50 (nM)
Write down the numeric answer in nM and omit the unit.

Test item CCCc1cc2c(cc1C(=O)c1ccc(C(=O)O)cc1)C(C)(C)CCC2(C)C [LG335] ; wtRXR (Homo sapiens); reported EC50 was 300
